Reference for the values: patent US20220177587A1

- Test Target: human PD-L1 (human) (UniProt Q9NZQ7)
- Sequence (Q9NZQ7 19-290): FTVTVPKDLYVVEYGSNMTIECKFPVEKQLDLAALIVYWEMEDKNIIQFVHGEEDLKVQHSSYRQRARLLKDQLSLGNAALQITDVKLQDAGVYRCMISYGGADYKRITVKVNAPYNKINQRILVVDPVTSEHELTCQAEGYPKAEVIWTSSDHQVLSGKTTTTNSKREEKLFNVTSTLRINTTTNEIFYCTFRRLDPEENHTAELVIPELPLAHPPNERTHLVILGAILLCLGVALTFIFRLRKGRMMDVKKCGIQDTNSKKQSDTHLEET
- Assay: flow cytometry, CHO cells stably expressing PD-L1
Measured Quantity: MFI at 33.3 nM (MFI)

variant CD80 IgV-Fc (inert) H18T/A26N/E35D/M47L/V68M/A71G (Fc fusion) VIHVTKEVKEVATLSCGTNVSVEELNQTRIYWQKDKKMVLTMMSGDLNIWPEYKNRTIFDITNNLSIMILGLRPSDEGTYECVVLKYEKDAFKREHLAEVTLSVKAD: 68500
CD80 IgV-Fc S15T/H18Y/E35D/M47V/T62A/N64S/A71G/L85Q/D90N (Fc fusion) VIHVTKEVKEVATLTCGYNVSVEELAQTRIYWQKDKKMVLTMMSGDVNIWPEYKNRTIFDIANSLSIVILGLRPSDEGTYECVVQKYEKNAFKREHLAEVTLSVKAD: 13900

I. CD80 IgV-Fc E35D/M47L/V68M/A71G/L85Q/D90G (Fc fusion) VIHVTKEVKEVATLSCGHNVSVEELAQTRIYWQKDKKMVLTMMSGDLNIWPEYKNRTIFDITNNLSIMILGLRPSDEGTYECVVQKYEKGAFKREHLAEVTLSVKAD
II. CD80 IgV-Fc H18Y/E35D/M47V/V68M/L85M (Fc fusion) VIHVTKEVKEVATLSCGYNVSVEELAQTRIYWQKDKKMVLTMMSGDVNIWPEYKNRTIFDITNNLSIMILALRPSDEGTYECVVMKYEKDAFKREHLAEVTLSVKAD
Returns: the argument ( I or II ) having the larger MFI at 33.3 nM. Returns: label corresponding to the selected item.
I
